- Tested on: pS6K1 T389 and pAkt S473 in PC3 cells
- TEST_DETAILS: Western blot based pS6K1 and pAKT assay at 24 and 48 hour timepoints
- Assay type: cell-based
READOUT_LABEL: mTORC1 selective @ 24 hrs

COMPOUND	RESULT
CO[C@@H]1/C(C)=C/[C@@H](C)C(=O)C[C@@H]([C@H](C)C[C@@H]2CC[C@@H](OC)[C@H](OC)C2)OC(=O)[C@@H]2CCCCN2C(=O)C(=O)[C@]2(O)O[C@@H](CC[C@H]2C)C[C@H](OCC2COCCO2)/C(C)=C/C=C/C=C/[C@@H](C)C[C@@H](C)C(=O)[C@@H]1OC (some centres unmarked)	Yes
CO[C@@H]1/C(C)=C/[C@@H](C)C(=O)C[C@@H]([C@H](C)C[C@@H]2CC[C@@H](O)[C@H](OC)C2)OC(=O)[C@@H]2CCCCN2C(=O)C(=O)[C@]2(O)O[C@@H](CC[C@H]2C)C[C@H](OCCOC2COC2)/C(C)=C/C=C/C=C/[C@@H](C)C[C@@H](C)C(=O)[C@@H]1OC	No
CO[C@@H]1C[C@H](C[C@@H](C)[C@@H]2CC(=O)[C@H](C)/C=C(\C)[C@@H](O)[C@@H](OC)C(=O)[C@H](C)C[C@H](C)/C=C/C=C/C=C(\C)[C@@H](OC[C@@H]3COCCO3)C[C@@H]3CC[C@@H](C)[C@@](O)(O3)C(=O)C(=O)N3CCCC[C@H]3C(=O)O2)CC[C@H]1OCCO	Yes
CO[C@@H]1C[C@H](C[C@@H](C)[C@@H]2CC(=O)[C@H](C)/C=C(\C)[C@@H](O)[C@@H](OC)C(=O)[C@H](C)C[C@H](C)/C=C/C=C/C=C(\C)[C@@H](OCCOC3COC3)C[C@@H]3CC[C@@H](C)[C@@](O)(O3)C(=O)C(=O)N3CCCC[C@H]3C(=O)O2)CC[C@H]1OC(=O)N(C)CCN1CCOCC1	Yes

Let us move to another entry and its mTORC1 selective @ 24 hrs.
Prompt: Look up mTORC1 selective @ 24 hrs for this compound: COCCOCCO[C@H]1C[C@@H]2CC[C@@H](C)[C@@](O)(O2)C(=O)C(=O)N2CCCC[C@H]2C(=O)O[C@H]([C@H](C)C[C@@H]2CC[C@@H](OCCOC)[C@H](OC)C2)CC(=O)[C@H](C)/C=C(\C)[C@@H](OC)[C@@H](OC)C(=O)[C@H](C)C[C@H](C)/C=C/C=C/C=C/1C
Response: Yes
